These data points were gathered from PubChem BioAssay (NCI).

Please provide measured TGI for the entries that follow.
# Test system: U251 CNS
# ASSAY_INFO: NCI tumour cell line growth inhibition, 48 h
Where a SMILES comes first, the peptide text is derived from it. [ ]: non-standard residue; d: D form. The star is where a group is joined. NMeF = CN[CH](Cc1ccccc1)C(=O)O; NMeV = CN[CH](C(=O)O)C(C)C; Boc = CC(C)(C)OC(=O)*; OBn = c1ccc(CO*)cc1

Enquiry: Query TGI for [N-]=[N+]=C1CNC(=O)NC1=O
Return: > 100 µM

Enquiry: Query TGI for O=C(c1ccc(Cl)cc1)N(Cc1cccnc1)C(=S)N(Cc1cccnc1)C(=O)c1ccc(Cl)cc1
Return: 53.6 µM

Enquiry: Query TGI for CCCNC(=O)c1cc2ccccc2cc1C(=O)OC
Return: > 100 µM

Enquiry: Query TGI for O=C1Nc2ccccc2C12CC(c1ccccc1)=NN2 (stereo unspecified)
Return: > 100 µM

Enquiry: Query TGI for CC(/C=N/NC1=NCCCCN1)=N\NC1=NCCCCN1
Return: > 100 µM

Enquiry: Query TGI for O=C1C2Cc3ccccc3CN2C(=O)N1CN1CCN(CN2C(=O)C3Cc4ccccc4CN3C2=O)CC1 (stereo unspecified)
Return: > 100 µM

Enquiry: Query TGI for C1OCN2c3nonc3N3COCN4c5nonc5N1C2C43 (stereo unspecified)
Return: > 100 µM

Enquiry: Query TGI for O=C1c2ccccc2C2(c3ccc(Cl)cc3)NCc3ccccc3CN12 (stereo unspecified)
Return: > 100 µM

Enquiry: Query TGI for OC(COc1ccc(Cl)cc1Cl)CN1CCCC1 (stereo unspecified)
Return: > 100 µM

Enquiry: Query TGI for C/C=C/C=C/C1=NN(c2cccc(S(=O)(=O)O)c2)C2(C1)SCC(=O)N2c1nc2ccccc2s1 (stereo unspecified)
Return: > 100 µM

Enquiry: Query TGI for COC(=O)C1=C(OC(=O)/C(=C/c2ccc(Cl)cc2)c2ccccc2)C(C(=O)OC)[C@@]2(O)[C@@H](C(=O)OC)[C@H](C)C[C@@H]1[C@@H]2C(=O)OC (stereo partly specified)
Return: > 100 µM

Enquiry: Query TGI for O=C1Cc2ccccc2N1/N=C\c1ccc(O)cc1
Return: > 100 µM

Enquiry: Query TGI for C/C1=C\CC[C@@](C)(O)[C@H]2C[C@H](CC/C(C)=C/CC1)C1(CC1)C(=O)O2
Return: 37.1 µM

Enquiry: Query TGI for CC(C)O/C=C1\C(=O)C2(SCCS2)[C@H]2CCCC[C@@H]12
Return: > 100 µM

Enquiry: Query TGI for Nc1c(C(=O)Nc2cccc3ccccc23)sc2nc3c(cc12)CCCC3
Return: > 100 µM

Enquiry: Query TGI for COc1cc(NCC(C#N)C#N)ccc1N=Nc1ccc([N+](=O)[O-])cc1
Return: > 100 µM

Enquiry: Query TGI for O=C(c1ccc(Cl)cc1)N1N=C(c2ccc(Cl)cc2)CC1(O)c1cc(F)c(Cl)cc1Cl (stereo unspecified)
Return: 37.3 µM

Enquiry: Query TGI for CCOC(=O)/C=C(/C(=O)OCC)n1c(=O)c(C)cn(C2CC(N=[N+]=[N-])C(CO)O2)c1=O (stereo unspecified)
Return: 37.4 µM

Enquiry: Query TGI for CCOC(=O)N(CC)c1c(C(F)(F)F)cc(-c2ccccc2)[nH]c1=O
Return: > 100 µM

Enquiry: Query TGI for CN(N)C(=O)NCCCl
Return: > 100 µM

Enquiry: Query TGI for COCC(=O)[C@]1(O)Cc2c(O)c3c(c(O)c2[C@@H](OC2CC(N)C(O)C(C)O2)C1)C(=O)c1c(OC)cccc1C3=O (stereo partly specified)
Return: 1.27 µM

Enquiry: Query TGI for CC1SC2=NC3=C(c4ccccc4C3=O)C(c3ccc(Br)cc3)N2C1=O (stereo unspecified)
Return: > 100 µM

Enquiry: Query TGI for COc1cc2c3c(cc(Cl)nc3c1OC)C(O)(CC(C)=O)C(=O)N2 (stereo unspecified)
Return: > 100 µM

Enquiry: Query TGI for CC(C)C(NC(=O)OC(C)(C)C)C(=O)N(C)C(Cc1ccccc1)C(=O)N(C)C(C(=O)N(C)C(C(=O)OCc1ccccc1)C(C)C)C(C)C (stereo unspecified) (Boc-V[NMeF][NMeV][NMeV]-OBn; configuration not given here)
Return: > 100 µM

Enquiry: Query TGI for CSc1nc(Cl)c(Br)c(Nc2c[nH]c(=O)[nH]c2=O)n1
Return: 48.5 µM

Enquiry: Query TGI for CC(=O)c1ccc2c(c1)oc(=O)n2CCN(C)C
Return: > 100 µM

Enquiry: Query TGI for COC1=NN2C(OC)(c3ccccc3)c3c(-c4ccccc4)sc(-c4ccccc4)c3C2(c2ccccc2)S1 (stereo unspecified)
Return: > 100 µM

Enquiry: Query TGI for c1ccc(C(CCN2CCCC2)c2ccccn2)cc1 (stereo unspecified)
Return: > 100 µM

Enquiry: Query TGI for Cc1ccccc1NC(=S)N/N=C(/c1ccccc1)c1ccccn1
Return: 12.1 µM

Enquiry: Query TGI for CCC(=N\NC(N)=S)/C(C)=N/O
Return: > 100 µM

Enquiry: Query TGI for O=C(CCc1cc(O)cc(O)c1)NCCc1ccc(O)c(O)c1
Return: > 100 µM

Enquiry: Query TGI for NCCCCNCCCN
Return: > 100 µM

Enquiry: Query TGI for CCN(CC)C(=S)SNCCc1ccc(S(N)(=O)=O)cc1
Return: 31.8 µM

Enquiry: Query TGI for Cc1cc(=O)c2c(O)c3c(O)cc(O)c4c5c(O)cc(O)c6c(O)c7c(=O)cc(C)c8c1c2c(c34)c(c65)c78
Return: > 100 µM

Enquiry: Query TGI for Clc1ccccc1-c1nc2ccccc2[nH]1
Return: > 100 µM

Enquiry: Query TGI for COc1cc(C2c3cc4c(cc3C3OC(=O)C2C3CO)OCO4)cc(OC)c1OC (stereo unspecified)
Return: > 100 µM

Enquiry: Query TGI for CC(=O)Oc1ccc(OC(Oc2ccccc2)c2ccccc2)cc1 (stereo unspecified)
Return: 35.5 µM

Enquiry: Query TGI for COc1cc(C(=O)/C=C/c2c(-c3ccc(F)cc3)nc3sccn23)cc(OC)c1OC
Return: 9.23 µM

Enquiry: Query TGI for O=C(/C=C/c1cccs1)c1ccsc1
Return: > 10 µM

Enquiry: Query TGI for C[C@H](CC[C@@H](O)C(C)(C)O)[C@H]1CC[C@@]2(C)[C@@H]3CC=C4[C@@H](CC[C@H](OC5OC(CO)C(O)C(O)C5O)C4(C)C)[C@]3(C)C(=O)C[C@]12C (stereo partly specified)
Return: > 100 µM

Enquiry: Query TGI for Cc1sc2nc(-c3ccccn3)c(/C=N/N=C(N)N)n2c1C
Return: 21 µM
